Each entry below carries its reported polymerase ribozyme fitness (log ratio).
B1: TPR 5TU (parent)
chain: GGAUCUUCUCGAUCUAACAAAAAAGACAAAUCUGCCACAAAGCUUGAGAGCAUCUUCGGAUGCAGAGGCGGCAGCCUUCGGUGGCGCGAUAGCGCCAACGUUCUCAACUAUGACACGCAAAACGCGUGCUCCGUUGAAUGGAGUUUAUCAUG

# Variants of: B1
# test-protocol: polymerase ribozyme fitness, log enrichment relative to wild type (log ratio); higher = more active; in vitro selection for triplet polymerase activity
Variants at the floor of the assay were thinned out.

mutation-string: A23C G141C
comparison-sign: =
polymerase ribozyme fitness (log ratio): -3.64

mutation-string: C35A G86A
comparison-sign: ≤
polymerase ribozyme fitness (log ratio): -4.2

mutation-string: G50C A60G
comparison-sign: =
polymerase ribozyme fitness (log ratio): -2.31

mutation-string: G11U U53A C132U U146G
comparison-sign: =
polymerase ribozyme fitness (log ratio): -3.51

mutation-string: C96G A120C
comparison-sign: =
polymerase ribozyme fitness (log ratio): 0.168

mutation-string: U45A A60G
comparison-sign: =
polymerase ribozyme fitness (log ratio): -2.47

mutation-string: U15C A21U
comparison-sign: =
polymerase ribozyme fitness (log ratio): 1.65

mutation-string: U6A A16C C27U U31G A52C C54G C118U
comparison-sign: ≤
polymerase ribozyme fitness (log ratio): -4.2

mutation-string: G83U C123A
comparison-sign: =
polymerase ribozyme fitness (log ratio): -0.709

mutation-string: C43U G86U C125A
comparison-sign: ≤
polymerase ribozyme fitness (log ratio): -4.2

mutation-string: C85G G94A G117U G124U U135G
comparison-sign: =
polymerase ribozyme fitness (log ratio): -3.69

mutation-string: G50A C57G G81A C85U C116U
comparison-sign: =
polymerase ribozyme fitness (log ratio): -2.31

mutation-string: C8U C57U
comparison-sign: =
polymerase ribozyme fitness (log ratio): -3.18

mutation-string: A52U
comparison-sign: =
polymerase ribozyme fitness (log ratio): -1.49

mutation-string: A37U A60U C75U C96A U111A
comparison-sign: ≤
polymerase ribozyme fitness (log ratio): -4.2

mutation-string: A47G U90C G92C G128U A137C A147C
comparison-sign: ≤
polymerase ribozyme fitness (log ratio): -4.2

mutation-string: A12G C27A C76A A147C U148A
comparison-sign: ≤
polymerase ribozyme fitness (log ratio): -4.2

mutation-string: A28G A106G U134G
comparison-sign: ≤
polymerase ribozyme fitness (log ratio): -4.2

mutation-string: G94A C149U
comparison-sign: =
polymerase ribozyme fitness (log ratio): -1.24

mutation-string: G133C U144C C149U
comparison-sign: =
polymerase ribozyme fitness (log ratio): -3.98

mutation-string: A21C C69A
comparison-sign: =
polymerase ribozyme fitness (log ratio): -1.75

mutation-string: C14U A23U U56C C87U U90G
comparison-sign: ≤
polymerase ribozyme fitness (log ratio): -4.2

mutation-string: A40C A52C G81A G83A C93G
comparison-sign: ≤
polymerase ribozyme fitness (log ratio): -4.2

mutation-string: C18A C27A A40U C87U C118U
comparison-sign: =
polymerase ribozyme fitness (log ratio): -4.17

mutation-string: A21G G84C A113U
comparison-sign: =
polymerase ribozyme fitness (log ratio): -4.09

mutation-string: C43G U44A G58A G88U C95U U135G
comparison-sign: ≤
polymerase ribozyme fitness (log ratio): -4.2

mutation-string: A3C U7C A47C U55A G59A A73U U82G U146C
comparison-sign: ≤
polymerase ribozyme fitness (log ratio): -4.2

mutation-string: U55G C87U G92A U101G G143U
comparison-sign: =
polymerase ribozyme fitness (log ratio): -3.33

mutation-string: A47U G81A C125G A150C
comparison-sign: ≤
polymerase ribozyme fitness (log ratio): -4.2

mutation-string: U56A C96A A138G
comparison-sign: ≤
polymerase ribozyme fitness (log ratio): -4.2

mutation-string: C99U G143C
comparison-sign: =
polymerase ribozyme fitness (log ratio): -2.66

mutation-string: G81C G84U
comparison-sign: =
polymerase ribozyme fitness (log ratio): -2.44

mutation-string: C43G A49C C76A G84A C105G
comparison-sign: ≤
polymerase ribozyme fitness (log ratio): -4.2

mutation-string: A41C G46A C57U C95U A115G
comparison-sign: =
polymerase ribozyme fitness (log ratio): -3.25

mutation-string: C27G C35G A64U A73G C79A C85G A91U
comparison-sign: ≤
polymerase ribozyme fitness (log ratio): -4.2

mutation-string: C38U U53A
comparison-sign: =
polymerase ribozyme fitness (log ratio): -1.72

mutation-string: C54A U56A C85G U101C U134A U148C
comparison-sign: ≤
polymerase ribozyme fitness (log ratio): -4.2

mutation-string: C51A C72U G74C C93A G141A
comparison-sign: ≤
polymerase ribozyme fitness (log ratio): -4.2

mutation-string: C8A U55A C79U G84A C108G G124A
comparison-sign: ≤
polymerase ribozyme fitness (log ratio): -4.2

mutation-string: C76U C93U A97U
comparison-sign: =
polymerase ribozyme fitness (log ratio): -0.802

mutation-string: A21U U56A G140A G141A
comparison-sign: =
polymerase ribozyme fitness (log ratio): -4.17

mutation-string: G11C U15G A40C C87A U148G
comparison-sign: ≤
polymerase ribozyme fitness (log ratio): -4.2

mutation-string: A21U G83C C95U
comparison-sign: =
polymerase ribozyme fitness (log ratio): -1.58

mutation-string: A52C G80C G83U
comparison-sign: ≤
polymerase ribozyme fitness (log ratio): -4.2

mutation-string: A41U G136A
comparison-sign: =
polymerase ribozyme fitness (log ratio): 0.0389

mutation-string: U4G U13G C93U A120G G143A U148C
comparison-sign: ≤
polymerase ribozyme fitness (log ratio): -4.2

mutation-string: A20U A29G A52G A89U C96A
comparison-sign: ≤
polymerase ribozyme fitness (log ratio): -4.2

mutation-string: C10U A22U A29G U61A C95G
comparison-sign: =
polymerase ribozyme fitness (log ratio): -4

mutation-string: A73U C75G U78A A89G C93G C95A U146G
comparison-sign: ≤
polymerase ribozyme fitness (log ratio): -4.2

mutation-string: C14A C38U G84U
comparison-sign: =
polymerase ribozyme fitness (log ratio): -3

mutation-string: U44A U144G U151G
comparison-sign: ≤
polymerase ribozyme fitness (log ratio): -4.2

mutation-string: U7G A64C A122G
comparison-sign: ≤
polymerase ribozyme fitness (log ratio): -4.2

mutation-string: A3G A22U A40U U44C C96G C116U U134C
comparison-sign: ≤
polymerase ribozyme fitness (log ratio): -4.2

mutation-string: A3U U13C A41U C76U C123U
comparison-sign: =
polymerase ribozyme fitness (log ratio): -2.89

mutation-string: G58U G94U G140U
comparison-sign: =
polymerase ribozyme fitness (log ratio): -3.9

mutation-string: U45G C79G G83U C85G U102C
comparison-sign: ≤
polymerase ribozyme fitness (log ratio): -4.2

mutation-string: A40C C69G C75U A98U U135G U151G
comparison-sign: ≤
polymerase ribozyme fitness (log ratio): -4.2

mutation-string: C36G C57G C72G C118U
comparison-sign: ≤
polymerase ribozyme fitness (log ratio): -4.2

mutation-string: G58C C85G U90A U139A G140U
comparison-sign: ≤
polymerase ribozyme fitness (log ratio): -4.2

mutation-string: A60C G65U C132A
comparison-sign: =
polymerase ribozyme fitness (log ratio): -4.19

mutation-string: C63U C99U C116A
comparison-sign: =
polymerase ribozyme fitness (log ratio): 0.561

mutation-string: C85A C87U
comparison-sign: ≤
polymerase ribozyme fitness (log ratio): -4.2

mutation-string: A12G A19C A40G U45C G92A G141A
comparison-sign: ≤
polymerase ribozyme fitness (log ratio): -4.2

mutation-string: C99G U134C
comparison-sign: =
polymerase ribozyme fitness (log ratio): -0.713

mutation-string: A20U A40C G80U G83A C99U G133U A142G U145C
comparison-sign: ≤
polymerase ribozyme fitness (log ratio): -4.2

mutation-string: C5A G92C
comparison-sign: =
polymerase ribozyme fitness (log ratio): -1.76

mutation-string: A17U C96A
comparison-sign: =
polymerase ribozyme fitness (log ratio): -0.735

mutation-string: C57G G140C
comparison-sign: =
polymerase ribozyme fitness (log ratio): -4.08

mutation-string: C14U G74A C99A
comparison-sign: ≤
polymerase ribozyme fitness (log ratio): -4.2

mutation-string: C32U A49U C51U C75U U102C U146G
comparison-sign: ≤
polymerase ribozyme fitness (log ratio): -4.2

mutation-string: C35U U78A G128A
comparison-sign: ≤
polymerase ribozyme fitness (log ratio): -4.2

mutation-string: G81C C87A C99G
comparison-sign: ≤
polymerase ribozyme fitness (log ratio): -4.2

mutation-string: A19G A122C G136C A142C
comparison-sign: =
polymerase ribozyme fitness (log ratio): -3.74

mutation-string: A21C U56A
comparison-sign: =
polymerase ribozyme fitness (log ratio): -0.39

mutation-string: A47U G62A U127C G133U
comparison-sign: ≤
polymerase ribozyme fitness (log ratio): -4.2

mutation-string: A22U A26C A47C C57A G62A G86A A89U A106U C108G
comparison-sign: ≤
polymerase ribozyme fitness (log ratio): -4.2

mutation-string: G70U C131U A137G
comparison-sign: =
polymerase ribozyme fitness (log ratio): -4.05

mutation-string: G133U U148G
comparison-sign: =
polymerase ribozyme fitness (log ratio): -4.1

mutation-string: G59A C87U
comparison-sign: =
polymerase ribozyme fitness (log ratio): -1.42

mutation-string: A29U G71C C93U U109G G124C
comparison-sign: ≤
polymerase ribozyme fitness (log ratio): -4.2

mutation-string: C36U G62A A91C C96G A113U
comparison-sign: ≤
polymerase ribozyme fitness (log ratio): -4.2

mutation-string: C76G G94U C96G U111A
comparison-sign: ≤
polymerase ribozyme fitness (log ratio): -4.2

mutation-string: G152U
comparison-sign: =
polymerase ribozyme fitness (log ratio): -2.19

mutation-string: U45A A106G
comparison-sign: =
polymerase ribozyme fitness (log ratio): -1.7

mutation-string: C85A C87U A98C
comparison-sign: =
polymerase ribozyme fitness (log ratio): -3.62

mutation-string: U15C C93U
comparison-sign: =
polymerase ribozyme fitness (log ratio): -0.331

mutation-string: C14G U15G A24G G58C C87G C108A C114U G136A
comparison-sign: ≤
polymerase ribozyme fitness (log ratio): -4.2

mutation-string: G126A G140A
comparison-sign: =
polymerase ribozyme fitness (log ratio): -3.54

mutation-string: G25A C54A G84U C114U A115G A121C U145G A150U
comparison-sign: ≤
polymerase ribozyme fitness (log ratio): -4.2

mutation-string: A22G U53C U82G A98U
comparison-sign: =
polymerase ribozyme fitness (log ratio): 0.397

mutation-string: C54G U55A G58A C99G C132A
comparison-sign: ≤
polymerase ribozyme fitness (log ratio): -4.2
